- experimental_target: T1, Avi/His-HuIL18BPa (recombinant human IL-18BP isoform A with Avi and poly-His tags) (human, biotinylated with BirA on the Avi tag in some assays)
- T1 chain: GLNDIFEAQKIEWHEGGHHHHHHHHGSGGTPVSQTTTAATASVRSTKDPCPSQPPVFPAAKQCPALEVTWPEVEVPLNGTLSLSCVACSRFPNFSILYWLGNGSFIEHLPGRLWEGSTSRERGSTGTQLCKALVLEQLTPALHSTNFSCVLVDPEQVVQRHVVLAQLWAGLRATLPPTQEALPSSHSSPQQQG
- test_details: cell-based or functional assay
// returns no (0) unless Fold change of IFNγ at 10 µg/ml vs baseline, human PBMC is strictly below 20 fold, in which case yes (1)

Input: Below 20 fold on Fold change of IFNγ at 10 µg/ml vs baseline, human PBMC? Entry anti-IL18BP antibody BP-02 (antibody, human IgG1, V domains shown) VH: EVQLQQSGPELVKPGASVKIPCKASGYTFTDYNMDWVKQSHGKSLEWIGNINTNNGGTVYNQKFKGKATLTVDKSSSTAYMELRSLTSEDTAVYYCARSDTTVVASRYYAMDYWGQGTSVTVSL VL: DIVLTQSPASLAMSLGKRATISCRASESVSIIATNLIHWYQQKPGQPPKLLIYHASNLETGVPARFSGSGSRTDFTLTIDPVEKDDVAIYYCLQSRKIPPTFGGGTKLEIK
Output: yes (1)

Input: Below 20 fold on Fold change of IFNγ at 10 µg/ml vs baseline, human PBMC? Entry anti-IL18BP antibody BP-09 (antibody, human IgG1, V domains shown) VH: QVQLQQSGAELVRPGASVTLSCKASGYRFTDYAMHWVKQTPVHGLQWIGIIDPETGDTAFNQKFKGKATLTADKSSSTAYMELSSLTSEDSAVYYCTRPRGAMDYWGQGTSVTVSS VL: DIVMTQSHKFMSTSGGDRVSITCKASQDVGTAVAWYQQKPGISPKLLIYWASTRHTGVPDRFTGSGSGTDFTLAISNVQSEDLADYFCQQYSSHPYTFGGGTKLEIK
Output: yes (1)

Input: Below 20 fold on Fold change of IFNγ at 10 µg/ml vs baseline, human PBMC? Entry anti-IL18BP antibody BP-01 (antibody, human IgG1, V domains shown) VH: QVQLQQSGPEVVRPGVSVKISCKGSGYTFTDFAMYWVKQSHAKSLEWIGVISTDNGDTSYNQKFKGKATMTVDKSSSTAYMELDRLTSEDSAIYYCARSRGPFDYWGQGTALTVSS VL: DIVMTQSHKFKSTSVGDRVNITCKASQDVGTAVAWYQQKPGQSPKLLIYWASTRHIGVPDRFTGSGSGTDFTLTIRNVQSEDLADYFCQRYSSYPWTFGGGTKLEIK
Output: yes (1)

Input: Below 20 fold on Fold change of IFNγ at 10 µg/ml vs baseline, human PBMC? Entry anti-IL18BP antibody BP-15 (antibody, human IgG1, V domains shown) VH: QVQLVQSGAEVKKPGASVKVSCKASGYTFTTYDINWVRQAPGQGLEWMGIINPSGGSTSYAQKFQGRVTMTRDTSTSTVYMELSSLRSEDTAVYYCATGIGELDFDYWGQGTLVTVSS VL: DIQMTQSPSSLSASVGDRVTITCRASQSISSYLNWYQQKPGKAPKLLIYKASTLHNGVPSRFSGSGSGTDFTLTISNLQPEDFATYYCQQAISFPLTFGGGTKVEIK
Output: no (0)

Input: Below 20 fold on Fold change of IFNγ at 10 µg/ml vs baseline, human PBMC? Entry anti-IL18BP antibody BP-11 (antibody, human IgG1, V domains shown) VH: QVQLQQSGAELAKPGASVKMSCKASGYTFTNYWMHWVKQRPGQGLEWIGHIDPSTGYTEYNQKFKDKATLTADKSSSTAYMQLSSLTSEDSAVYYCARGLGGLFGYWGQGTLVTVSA VL: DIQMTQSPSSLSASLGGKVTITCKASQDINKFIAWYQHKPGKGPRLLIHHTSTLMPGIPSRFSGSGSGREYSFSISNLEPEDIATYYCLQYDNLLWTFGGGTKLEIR
Output: yes (1)

src = patent US20250333523A1
